- targetOrSystem: human TSHR (Homo sapiens, UniProt P16473)
- Construct: expressed in transfected cells
- Sequence (P16473 21-764): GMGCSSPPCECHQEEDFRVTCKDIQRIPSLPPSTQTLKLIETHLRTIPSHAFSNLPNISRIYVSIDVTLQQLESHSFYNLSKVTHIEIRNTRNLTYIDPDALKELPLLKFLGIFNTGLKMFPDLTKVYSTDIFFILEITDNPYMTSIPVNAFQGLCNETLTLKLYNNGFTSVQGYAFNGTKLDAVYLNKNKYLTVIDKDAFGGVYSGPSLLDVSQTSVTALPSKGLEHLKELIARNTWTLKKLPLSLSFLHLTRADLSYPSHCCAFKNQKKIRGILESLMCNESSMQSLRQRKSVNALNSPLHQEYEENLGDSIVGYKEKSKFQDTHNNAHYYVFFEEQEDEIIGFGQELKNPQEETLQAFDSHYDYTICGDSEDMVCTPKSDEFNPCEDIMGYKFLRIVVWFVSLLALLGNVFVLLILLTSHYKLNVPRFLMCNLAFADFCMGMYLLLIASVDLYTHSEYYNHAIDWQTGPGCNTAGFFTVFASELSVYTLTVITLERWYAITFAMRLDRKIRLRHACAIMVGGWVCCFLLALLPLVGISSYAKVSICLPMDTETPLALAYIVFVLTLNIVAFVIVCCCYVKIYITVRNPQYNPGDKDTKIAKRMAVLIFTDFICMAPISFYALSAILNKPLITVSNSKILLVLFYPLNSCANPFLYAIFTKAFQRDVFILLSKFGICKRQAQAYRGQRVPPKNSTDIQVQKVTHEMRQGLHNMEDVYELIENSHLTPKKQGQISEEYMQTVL
- runDescription: Homogeneous Time Resolved Fluorescence (HTRF) cAMP assay, TSHR cell line
- Assay type: cell-based
- experimentalConditions: read-out: Maximum Activity compared to TSH, 100% activity = response of 30 mU/ml TSH, 0% = DMSO control
Output YES for records whose Emax is lower than 30%, NO for records at or above 30%.

Query block: In plain terms, does COc1ccc(-c2nc3ccc(Cl)cc3c(=O)n2Cc2ccccc2)cc1COc1ccc(NC(C)=O)cc1 [Structure 181] come in under 30% for Emax?
Result block: YES

Query block: In plain terms, does COc1ccc(C2Nc3ccccc3C(=O)N2C2CCCC2)cc1COc1ccc(NC(C)=O)cc1 (stereo not drawn) [Structure 138] come in under 30% for Emax?
Result block: NO

Query block: In plain terms, does COc1ccc(C2Nc3ccccc3C(=O)N2Cc2ccc(C(F)(F)F)cc2)cc1COc1ccc(NC(C)=O)cc1 (stereo not drawn) [Structure 197] come in under 30% for Emax?
Result block: YES

Query block: In plain terms, does COc1ccc(C2Nc3ccccc3C(=O)N2Cc2ccc(CNC(=O)CO)cc2)cc1COc1ccc(NC(C)=O)cc1 (stereo not drawn) [Structure 107] come in under 30% for Emax?
Result block: NO

Query block: In plain terms, does COc1ccc(CN(Cc2ccccc2)C(=O)c2ccccc2O)cc1COc1ccc(NC(C)=O)cc1 [Structure 65] come in under 30% for Emax?
Result block: NO

Query block: In plain terms, does COc1ccc(C2Nc3ccc(NC(=O)CO)cc3C(=O)N2Cc2cccc(Cl)c2)cc1COc1ccc(NC(C)=O)cc1 (stereo not drawn) [Structure 36] come in under 30% for Emax?
Result block: NO

Query block: In plain terms, does COc1ccc(C2Nc3ccccc3C(=O)N2CC(C)(C)C)cc1COc1ccc(NC(C)=O)cc1 (stereo not drawn) [Structure 257] come in under 30% for Emax?
Result block: YES

Query block: In plain terms, does COc1ccc(C2Nc3ccccc3C(=O)N2Cc2cccnc2)cc1COc1ccc(NC(C)=O)cc1 (stereo not drawn) [Structure 99] come in under 30% for Emax?
Result block: NO

Query block: In plain terms, does COc1ccc(OCc2cc(C3Nc4ccccc4C(=O)N3Cc3ccccc3)ccc2OC)cc1 (stereo not drawn) [Structure 87] come in under 30% for Emax?
Result block: NO

Query block: In plain terms, does O=C(c1ccccc1O)N(Cc1cccs1)Cc1cccs1 [Structure 133] come in under 30% for Emax?
Result block: NO

Query block: In plain terms, does COc1ccc(C2Nc3ccccc3C(=O)N2Cc2ccccc2Cl)cc1COc1ccc(NC(C)=O)cc1 (stereo not drawn) [Structure 231] come in under 30% for Emax?
Result block: YES

Query block: In plain terms, does COc1ccc(C2Nc3cccc(OC)c3C(=O)N2Cc2ccccc2)cc1COc1ccc(NC(C)=O)cc1 (stereo not drawn) [Structure 106] come in under 30% for Emax?
Result block: NO

Query block: In plain terms, does COc1ccc(C2Cc3ccccc3C(=O)N2Cc2ccco2)cc1COc1ccc(NC(C)=O)cc1 (stereo not drawn) [Structure 29] come in under 30% for Emax?
Result block: NO

Query block: In plain terms, does COc1ccc(C(=O)N(Cc2ccccc2)Cc2ccc(OC)c(COc3ccc(NC(C)=O)cc3)c2)cc1 [Structure 15] come in under 30% for Emax?
Result block: NO
